# target or test system: T1, Plasmodium falciparum Hsp110 (PfHsp70-z, PF3D7_0708800) (Plasmodium falciparum, UniProt Q8IC01 1-873)
# T1 sequence: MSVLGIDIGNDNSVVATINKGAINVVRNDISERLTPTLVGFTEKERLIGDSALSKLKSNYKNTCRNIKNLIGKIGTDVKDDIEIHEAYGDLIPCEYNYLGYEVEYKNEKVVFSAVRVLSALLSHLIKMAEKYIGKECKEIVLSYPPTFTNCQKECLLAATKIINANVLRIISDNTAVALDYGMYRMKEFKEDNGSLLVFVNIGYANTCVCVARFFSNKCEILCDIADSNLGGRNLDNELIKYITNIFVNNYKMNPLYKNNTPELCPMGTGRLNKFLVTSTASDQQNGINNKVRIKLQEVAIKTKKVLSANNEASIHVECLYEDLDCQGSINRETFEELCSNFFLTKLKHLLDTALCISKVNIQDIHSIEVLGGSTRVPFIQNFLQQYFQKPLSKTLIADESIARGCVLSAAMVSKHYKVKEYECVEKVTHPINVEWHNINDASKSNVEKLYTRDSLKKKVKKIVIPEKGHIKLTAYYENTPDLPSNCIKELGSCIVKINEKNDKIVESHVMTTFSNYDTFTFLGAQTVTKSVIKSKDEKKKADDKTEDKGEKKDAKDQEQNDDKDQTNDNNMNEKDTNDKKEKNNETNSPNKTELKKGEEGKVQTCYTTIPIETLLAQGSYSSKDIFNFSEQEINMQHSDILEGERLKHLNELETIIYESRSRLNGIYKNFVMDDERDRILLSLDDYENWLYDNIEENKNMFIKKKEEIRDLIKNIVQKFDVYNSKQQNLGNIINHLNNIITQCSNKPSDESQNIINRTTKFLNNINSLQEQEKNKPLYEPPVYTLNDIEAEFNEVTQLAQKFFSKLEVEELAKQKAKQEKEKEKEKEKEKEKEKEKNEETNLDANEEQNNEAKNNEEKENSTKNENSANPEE
# protocol summary: SPR
As shown below, each of these binders has a reported Kd value.
Give the value, in units of nM, as a plain number.

Use the examples below as a reference point.
# binder, Kd / nM
rows = [
    ("ANNNMYRR", 9.37),
    ("NRNNTG", 24.1),
    ("NRLLTG", 145),
]

Attention now turns to another entry.
In plain terms, `ALLLMYRR` has a documented Kd of 43.1
